Entry source: PubChem BioAssay AID1996

# conditionDetails: buffer; pH 7.4; 200.0 µM
recordedMetric: solubility kinetic

compound="CCCC1/C(=N/O)CC(c2ccccc2)NC1c1ccccc1 (stereo unspecified)" recordedmetric="solubility kinetic" endpointresult="< 0.3 µg/mL"
compound="Cc1cccc(C(=O)N2CCCC(Nc3ccc(C)c(C)c3)C2)n1 (stereo unspecified)" recordedmetric="solubility kinetic" endpointresult="42.1 µg/mL"
compound="CC(=O)c1ccc(OC(C)C(=O)NC2CCCCC2C)cc1 (stereo unspecified)" recordedmetric="solubility kinetic" endpointresult="> 45.5 µg/mL"
compound="Cc1cccc(CC2CC(=O)N(c3ccc([N+](=O)[O-])cc3)C2=O)c1 (stereo unspecified)" recordedmetric="solubility kinetic" endpointresult="21 µg/mL"
compound=COc1cc(C(=O)O)ccc1OCc1ccncc1 recordedmetric="solubility kinetic" endpointresult="> 38.9 µg/mL"
compound=Cc1ccc2cc3c(nc2c1)N(c1ccccc1)CC3 recordedmetric="solubility kinetic" endpointresult="< 0.3 µg/mL"
compound="CC1=CC(C)(C)NC(=S)N1C(C)c1ccccc1 (stereo unspecified)" recordedmetric="solubility kinetic" endpointresult="7.2 µg/mL"
compound=O=C1CN(C(=O)COC(=O)c2ccc(Br)o2)c2ccccc2N1 recordedmetric="solubility kinetic" endpointresult="9.5 µg/mL"
compound=Cc1ccc(N=Cc2c(O)c3ccccc3oc2=O)c(C)c1 recordedmetric="solubility kinetic" endpointresult="< 0.6 µg/mL"
compound=COc1ccc(OC)c(NC(=O)NC2CCCCCCC2)c1 recordedmetric="solubility kinetic" endpointresult="2.2 µg/mL"
compound=O=c1cnnc(Nc2ccccc2F)[nH]1 recordedmetric="solubility kinetic" endpointresult="> 30.9 µg/mL"
